Tgt: OX1 (Homo sapiens)
Construct: expressed in transfected cells; host or cells: CHO (CHO-OX1, kept under selection antibiotic)
Sequence (O43613 whole entry): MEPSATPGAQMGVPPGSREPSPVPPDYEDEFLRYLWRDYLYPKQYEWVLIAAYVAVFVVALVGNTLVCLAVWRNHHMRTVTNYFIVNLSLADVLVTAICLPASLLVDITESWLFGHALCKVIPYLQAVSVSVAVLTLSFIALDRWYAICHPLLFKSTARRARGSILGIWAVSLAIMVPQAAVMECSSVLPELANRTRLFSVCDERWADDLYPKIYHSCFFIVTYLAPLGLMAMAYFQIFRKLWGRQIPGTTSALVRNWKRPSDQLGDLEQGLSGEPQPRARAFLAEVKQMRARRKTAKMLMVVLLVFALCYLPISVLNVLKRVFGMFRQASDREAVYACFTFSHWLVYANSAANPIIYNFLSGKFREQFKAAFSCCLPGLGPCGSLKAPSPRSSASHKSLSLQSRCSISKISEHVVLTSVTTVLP
Assay Protocol: Orexin receptor cell-based functional assay, [Ca2+]i by FLIPR, CHO-OX1 cells
Measurement Setup: CHO-OX1 cells, [Ca2+]i by FLIPR, antagonist dose-range 0.1 nM-10 μM, EC90 of OXA; read-out: OX1
pIC50: −log10 of the molar value.
Record yes whenever pIC50 is at 7 or higher; record no when lower.

[ask] Confirm if pIC50 reported for the molecule Cc1ccc(-n2cccn2)c(C(=O)N2CCC[C@@H](C)[C@H]2CNc2ccc(C)nn2)c1 is 7 or above.
[reply] no

[ask] Confirm if pIC50 reported for the molecule C[C@@H]1CCCN(C(=O)c2c(-n3nccn3)ccc(F)c2F)[C@@H]1CNc1ccc(C(F)(F)F)cn1 is 7 or above.
[reply] yes

[ask] Confirm if pIC50 reported for the molecule Cc1ccc(-n2ccc(C)n2)c(C(=O)N2CCC[C@@H](C)[C@H]2CNc2ccc(C(F)(F)F)nn2)c1 is 7 or above.
[reply] yes

[ask] Confirm if pIC50 reported for the molecule C[C@@H]1CCCN(C(=O)c2cc(F)ccc2-n2nccn2)[C@@H]1CNc1ncc(Cl)cn1 is 7 or above.
[reply] yes

[ask] Confirm if pIC50 reported for the molecule C[C@@H]1CCCN(C(=O)c2cc(F)c(F)cc2-c2ncccn2)[C@@H]1CNc1ccc(C(F)(F)F)cn1 is 7 or above.
[reply] yes

[ask] Confirm if pIC50 reported for the molecule Cc1cccc(-c2ncccn2)c1C(=O)N1CCC[C@@H](C)[C@H]1CNc1ncc(C(F)(F)F)cn1 is 7 or above.
[reply] no

[ask] Confirm if pIC50 reported for the molecule Cc1ccc(-c2cn[nH]c2)c(C(=O)N2CCC[C@@H](C)[C@H]2CNc2ccc(C(F)(F)F)cn2)c1 is 7 or above.
[reply] yes

[ask] Confirm if pIC50 reported for the molecule Cc1cc(F)cc(C(=O)N2CCC[C@@H](C)[C@H]2CNc2ccc(C(F)(F)F)cn2)c1-n1nccn1 is 7 or above.
[reply] yes

[ask] Confirm if pIC50 reported for the molecule Cc1ccc(-n2nccn2)c(C(=O)N2CCC[C@@H](C)[C@H]2COc2ccc(C(F)(F)F)cn2)c1 is 7 or above.
[reply] yes

[ask] Confirm if pIC50 reported for the molecule C[C@@H]1CCCN(C(=O)c2ccccc2-n2nccn2)[C@@H]1CNc1ncc(C(F)(F)F)cn1 is 7 or above.
[reply] yes

[ask] Confirm if pIC50 reported for the molecule Cc1ccc(-c2nn[nH]n2)c(C(=O)N2CCC[C@@H](C)[C@H]2CNc2ccc(C(F)(F)F)cn2)c1 is 7 or above.
[reply] no

[ask] Confirm if pIC50 reported for the molecule Cc1ccc(-c2cnn(C)c2)c(C(=O)N2CCC[C@@H](C)[C@H]2CNc2nc3cc(Cl)ccc3o2)c1 [Example A40] is 7 or above.
[reply] yes

[ask] Confirm if pIC50 reported for the molecule COc1cccnc1NC[C@@H]1[C@H](C)CCCN1C(=O)c1cc(C)ccc1-n1nccn1 is 7 or above.
[reply] no

[ask] Confirm if pIC50 reported for the molecule C[C@@H]1CCCN(C(=O)c2cc(F)ccc2-n2nccn2)[C@@H]1CNc1ccc(C(F)(F)F)nn1 is 7 or above.
[reply] no

[ask] Confirm if pIC50 reported for the molecule Cc1ccc(-c2ccccn2)c(C(=O)N2CCC[C@@H](C)[C@H]2CNc2ccc(F)cn2)c1 is 7 or above.
[reply] no

[ask] Confirm if pIC50 reported for the molecule Cc1nc(C(=O)N2CCC[C@H](C)[C@@H]2CNc2ccc(C(F)(F)F)cn2)c(-c2ccc(F)cc2)s1 is 7 or above.
[reply] no

[ask] Confirm if pIC50 reported for the molecule Cc1ccc(C(=O)N2CCC[C@@H](C)[C@H]2CNc2ccc(C(F)(F)F)cn2)c(-n2nccn2)c1 is 7 or above.
[reply] yes

[ask] Confirm if pIC50 reported for the molecule Cc1ccc(-n2nccn2)c(C(=O)N2CCC[C@@H](C)[C@H]2CNc2ncc(C(F)(F)F)cn2)c1F is 7 or above.
[reply] yes

[ask] Confirm if pIC50 reported for the molecule Cc1ccc(-n2ncnc2C)c(C(=O)N2CCC[C@@H](C)[C@H]2CNc2ccc(C(F)(F)F)cn2)c1 is 7 or above.
[reply] no

[ask] Confirm if pIC50 reported for the molecule Cc1ccc(-n2nccn2)c(C(=O)N2CCC[C@@H](C)[C@H]2CNc2ncccc2C)c1 is 7 or above.
[reply] no

[ask] Confirm if pIC50 reported for the molecule C[C@@H]1CCCN(C(=O)c2cc(F)ccc2-c2ncccn2)[C@@H]1CNc1ccc(C(F)(F)F)cn1 is 7 or above.
[reply] yes

[ask] Confirm if pIC50 reported for the molecule Cc1ccc(-c2cnn(C)c2)c(C(=O)N2CCC[C@@H](C)[C@H]2CNc2ncccc2C#N)c1 is 7 or above.
[reply] no

[ask] Confirm if pIC50 reported for the molecule Cc1ccc(-n2cccn2)c(C(=O)N2CCC[C@@H](C)[C@H]2CNc2ccc(Cl)cn2)n1 is 7 or above.
[reply] yes

[ask] Confirm if pIC50 reported for the molecule Cc1ccc(-n2nccn2)c(C(=O)N2CCC[C@@H](C)[C@H]2CNc2ccc(C(F)(F)F)nn2)n1 is 7 or above.
[reply] yes

[ask] Confirm if pIC50 reported for the molecule Cc1ccc(-c2nccn2C)c(C(=O)N2CCC[C@@H](C)[C@H]2CNc2ccc(C(F)(F)F)cn2)c1 is 7 or above.
[reply] yes

Value source: patent US9440982B2
